Values were extracted from PubChem BioAssay (EPA / NIEHS).

Molecular target: Cellular tumor antigen p53 (Homo sapiens)
Experiment: TOX21_p53_BLA_p3_ratio: Tox21 HCT-116 p53 Agonism Beta-lactamase Assay, Ratio, Phase 3 (AID 2283596)
Inconclusive results are not listed. Activity calls are given as the source filed them. The calls were made as follows: active = hit-call score of the fitted dose curve at least 0.9, where 1 is the maximum; inconclusive = response in the unintended direction; inactive = score below 0.9.
Outcome codes: active, inactive

compound	category
CCN(CC)C(=O)N1CCN(C)CC1	inactive
COc1ccc([C@@H]2Sc3ccccc3N(CCN(C)C)C(=O)[C@@H]2OC(C)=O)cc1	active
O=C(O)[C@@H]1[C@H]2C[C@H]3c4[nH]c5ccccc5c4CCN3C[C@@H]2CC[C@@H]1O	inactive
COc1cc(C(=O)NS(=O)(=O)c2ccccc2C)ccc1Cc1cn(C)c2ccc(NC(=O)OC3CCCC3)cc12	active
O=[N+]([O-])c1cccc(I)c1	inactive
CC(C)(C)NC[C@H](O)COc1cccc2c1CCCC2=O	inactive
OC[C@]1(O)OC[C@@H](O)[C@H](O)[C@@H]1O	inactive
CCN(CC)CCNc1ccc(CO)c2sc3ccccc3c(=O)c12	active
C[C@H](CCC(=O)O)[C@H]1CC[C@H]2[C@@H]3[C@H](O)C[C@@H]4C[C@H](O)CC[C@]4(C)[C@H]3CC[C@]12C	inactive
C=CC[C@@H]1/C=C(\C)C[C@H](C)C[C@H](OC)[C@H]2O[C@@](O)(C(=O)C(=O)N3CCCC[C@H]3C(=O)O[C@H](/C(C)=C/[C@@H]3CC[C@@H](O)[C@H](OC)C3)[C@H](C)[C@@H](O)CC1=O)[C@H](C)C[C@@H]2OC	inactive
CC1(C)S[C@@H]2[C@H](NC(=O)C(N)c3ccccc3)C(=O)N2[C@H]1C(=O)OC1OC(=O)c2ccccc21 (some centres not stated)	inactive
CC(=O)N(CC(O)CO)c1c(I)c(C(=O)NCC(O)CO)c(I)c(C(=O)NCC(O)CO)c1I (configuration not stated)	inactive
